Values compiled from ChEMBL document CHEMBL4330182.

test: Solubility of the compound in pH 6.5 solution; assay type: physicochemical; settings: buffer
assay_endpoint: solubility (µM)
Entry rule: numbers only, all in µM.

// fetch solubility given entry O=c1c2ccccc2c(=O)c2c1oc1c(=O)c3ccccc3c(=O)c12
0.09

// fetch solubility given entry O=c1c2ccccc2c(=O)c2c1sc1c(=O)c3ccccc3c(=O)c12
0.06

// fetch solubility given entry O=c1c2ccccc2c(=O)c2c1[nH]c1c(=O)c3ccccc3c(=O)c12
0.4

// fetch solubility given entry O=c1c2ccccc2c(=O)c2c1sc1c(=O)c3ncccc3c(=O)c12
0.5

* * *

test system: SK-MEL-28; assay: Cytotoxicity against human SK-MEL-28 cells after 72 hrs by MTT assay; type: functional, cell-based; conditions: SK-MEL-28, 72 h
assay_endpoint: IC50 (nM)
Entry rule: numbers only, all in nM.

// fetch IC50 given entry CCCCNC(=O)Oc1ccc2c(=O)c3sc4c(=O)c5ccccc5c(=O)c4c3c(=O)c2c1
1800

// fetch IC50 given entry O=c1c2ccccc2c(=O)c2c1sc1c(=O)c3ccc(O)cc3c(=O)c12
330

// fetch IC50 given entry COc1ccc2c(=O)c3sc4c(=O)c5ccccc5c(=O)c4c3c(=O)c2c1
7000

// fetch IC50 given entry O=c1c2ccccc2c(=O)c2c1oc1c(=O)c3ccccc3c(=O)c12
3470

// fetch IC50 given entry COc1cccc2c1C(=O)c1c(O)c3c(c(O)c1C2=O)C[C@@](O)(C(=O)CO)C[C@@H]3O[C@H]1C[C@H](N)[C@H](O)[C@H](C)O1
3000

// fetch IC50 given entry O=c1c2ccccc2c(=O)c2c1[nH]c1c(=O)c3ccccc3c(=O)c12
4300

// fetch IC50 given entry O=c1c2ccccc2c(=O)c2c1sc1c(=O)c3ccccc3c(=O)c12
360

// fetch IC50 given entry O=c1c2ccccc2c(=O)c2c1sc1c(=O)c3ncccc3c(=O)c12
2150

* * *

experiment: Solubility of the compound in pH 7.2 solution; type: physicochemical; conditions: buffer
assay_endpoint: solubility
Give the number first and the unit second.

// fetch solubility given entry O=c1c2ccccc2c(=O)c2c1sc1c(=O)c3ccc(O)cc3c(=O)c12
0.4 µM

// fetch solubility given entry CCCCNC(=O)Oc1ccc2c(=O)c3sc4c(=O)c5ccccc5c(=O)c4c3c(=O)c2c1
24.6 µM

// fetch solubility given entry COc1ccc2c(=O)c3sc4c(=O)c5ccccc5c(=O)c4c3c(=O)c2c1
8.2 µM
